Each record here notes measured LYMPHOCYTE.
Species on record: Rattus norvegicus
Test: DrugMatrix - Regimen: Daily Repeat
Format: toxicity, organism-based, Sprague-Dawley
Parameters: regimen Daily Repeat, gender Male, age 6-8 weeks
Settings: in vivo, po, 0 mg/kg, 120 h, tissue Blood, route oral GAVAGE, dose level Control, time 5 day, vehicle 100 % WATER

{"compound": "CC(C)NCC(O)COc1cccc2ccccc12 (centres undefined)", "LYMPHOCYTE": "87.5%"}
{"compound": "Cc1ncc([N+](=O)[O-])n1CCO", "LYMPHOCYTE": "89.83%"}
{"compound": "C[C@@H]1C[C@@H]([C@H](O)CC2CC(=O)NC(=O)C2)C(=O)[C@@H](C)C1 [CYCLOHEXIMIDE]", "LYMPHOCYTE": "92.33%"}
{"compound": "CC(C)C[C@H](NC(=O)[C@@H](O)[C@H](N)Cc1ccccc1)C(=O)O", "LYMPHOCYTE": "85.83%"}
{"compound": "C[N+](C)(C)CCO.[Cl-] [CHOLINE CHLORIDE]", "LYMPHOCYTE": "90.67%"}
{"compound": "CC(C)(C)c1ccc(C(=O)CCCN2CCC(OC(c3ccccc3)c3ccccc3)CC2)cc1", "LYMPHOCYTE": "87.5%"}
{"compound": "ClC(Cl)Cl [CHLOROFORM]", "LYMPHOCYTE": "89.83%"}
{"compound": "Nc1ccn([C@@H]2CS[C@H](CO)O2)c(=O)n1", "LYMPHOCYTE": "92.17%"}
{"compound": "COC(=O)C1=C(C)NC(C)=C(C(=O)OCC(C)C)C1c1ccccc1[N+](=O)[O-] (centres undefined)", "LYMPHOCYTE": "92.67%"}

* * *

Species: Rattus norvegicus
Assay: DrugMatrix - Regimen: Daily Repeat
Format: toxicity, organism-based, Sprague-Dawley
Parameters: regimen Daily Repeat, gender Male, age 6-8 weeks
Details: in vivo, po, 0 mg/kg, 120 h, tissue Plasma, route oral GAVAGE, dose level Control, time 5 day, vehicle .5 % CMC
// reported CARBON DIOXIDE for each item listed

{"compound": "C#C[C@]1(O)CC[C@H]2[C@@H]3CCc4cc(OC)ccc4[C@H]3CC[C@@]21C", "CARBON DIOXIDE (mmol/L)": 30.33}
{"compound": "C[C@](O)(CS(=O)(=O)c1ccc(F)cc1)C(=O)Nc1ccc(C#N)c(C(F)(F)F)c1 [(R)-BICALUTAMIDE]", "CARBON DIOXIDE (mmol/L)": 27.67}
{"compound": "CC(C)[C@H]1CC[C@H](C(=O)N[C@H](Cc2ccccc2)C(=O)O)CC1 [NATEGLINIDE]", "CARBON DIOXIDE (mmol/L)": 26.33}
{"compound": "CC(=O)CC(c1ccccc1)c1c(O)c2ccccc2oc1=O (stereo unspecified)", "CARBON DIOXIDE (mmol/L)": 28.67}
{"compound": "Clc1ccc2c(c1)C(N1CCNCC1)=Nc1ccccc1O2", "CARBON DIOXIDE (mmol/L)": 27.17}
{"compound": "C[C@]1(Cn2ccnn2)[C@H](C(=O)O)N2C(=O)C[C@H]2S1(=O)=O", "CARBON DIOXIDE (mmol/L)": 27.5}
{"compound": "CN1C(=O)COc2c(C(=O)NC3CN4CCC3CC4)cc(Cl)cc21 (stereo unspecified)", "CARBON DIOXIDE (mmol/L)": 29.17}
{"compound": "CNC(=C[N+](=O)[O-])NCCSCc1ccc(CN(C)C)o1", "CARBON DIOXIDE (mmol/L)": 30.33}
{"compound": "CO[C@H]1/C=C/O[C@@]2(C)Oc3c(C)c(O)c4c(c3C2=O)C2=NC3(CCN(CC(C)C)CC3)NC2=C(NC(=O)/C(C)=C\\C=C\\[C@H](C)[C@H](O)[C@@H](C)[C@@H](O)[C@@H](C)[C@H](OC(C)=O)[C@@H]1C)C4=O", "CARBON DIOXIDE (mmol/L)": 30.33}
{"compound": "OC(CCN1CCCCC1)(c1ccccc1)C1CCCCC1 (stereo unspecified)", "CARBON DIOXIDE (mmol/L)": 30.17}
{"compound": "O=[N+]([O-])c1ccccc1", "CARBON DIOXIDE (mmol/L)": 27}

* * *

Species: Rattus norvegicus
Test: DrugMatrix - Regimen: Daily Repeat
Type: toxicity, organism-based, Sprague-Dawley
Parameters: regimen Daily Repeat, gender Male, age 6-8 weeks
Conditions: in vivo, ip, 2 mg/kg, […], tissue Blood, route intraperitoneal, dose level High, time 14 day, vehicle 100 % SALINE
reported.property: ABSOLUTE EOSINOPHIL (cells/µL)

{"substance": "CADMIUM DICHLORIDE", "reported.property": "ABSOLUTE EOSINOPHIL", "value.measured": 86}

* * *

Species on record: Rattus norvegicus
Assay: DrugMatrix - Regimen: Daily Repeat
Assay type: toxicity, organism-based, Sprague-Dawley
Parameters: regimen Daily Repeat, gender Male, age 6-8 weeks
Details: in vivo, iv, 0 mg/kg, 72 h, tissue Blood, dose level Control, time 3 day, vehicle 100 % SALINE
Known EOSINOPHIL of a selection of molecules
reported.property: EOSINOPHIL (%)

{"molecule": "CCC1=C[C@@H]2CN(C1)Cc1c([nH]c3ccccc13)[C@@](C(=O)OC)(c1cc3c(cc1OC)N(C)[C@H]1[C@@](O)(C(=O)OC)[C@H](OC(C)=O)[C@]4(CC)C=CCN5CC[C@]31[C@@H]54)C2", "value.measured": 0.17}
{"molecule": "COc1cccc2c1C(=O)c1c(O)c3c(c(O)c1C2=O)C[C@@](O)(C(=O)CO)C[C@@H]3O[C@H]1C[C@H](N)[C@@H](O)[C@H](C)O1 [EPIRUBICIN]", "value.measured": 0.17}
{"molecule": "CC(=O)N[C@@H]1[C@H](Oc2c3cc4cc2Oc2ccc(cc2Cl)[C@@H](O[C@@H]2O[C@@H](CO)[C@@H](O)[C@H](O)[C@@H]2NC(C)=O)[C@@H]2NC(=O)[C@H](NC(=O)[C@@H]4NC(=O)[C@H]4NC(=O)[C@@H](Cc5ccc(c(Cl)c5)O3)NC(=O)[C@H](N)c3ccc(O)c(c3)Oc3cc(O)cc4c3)c3ccc(O)c(c3)-c3c(O[C@H]4O[C@H](CO)[C@@H](O)[C@@H](O)[C@@H]4O)cc(O)cc3[C@@H](C(=O)O)NC2=O)O[C@@H](CO)[C@@H](O)[C@@H]1O", "value.measured": 1.17}
{"molecule": "CC[C@]1(O)C[C@@H]2CN(CCc3c([nH]c4ccccc34)[C@@](C(=O)OC)(c3cc4c(cc3OC)N(C)[C@H]3[C@@](O)(C(=O)OC)[C@H](OC(C)=O)[C@]5(CC)C=CCN6CC[C@]43[C@@H]65)C2)C1", "value.measured": 0.17}
{"molecule": "COc1cccc2c1C(=O)c1c(O)c3c(c(O)c1C2=O)C[C@@](O)(C(=O)CO)C[C@@H]3O[C@H]1C[C@H](N)[C@H](O)[C@H](C)O1", "value.measured": 0}
{"molecule": "CCc1c2c(nc3ccc(OC(=O)N4CCC(N5CCCCC5)CC4)cc13)-c1cc3c(c(=O)n1C2)COC(=O)[C@]3(O)CC", "value.measured": 0.17}

* * *

Reported ASPARTATE AMINOTRANSFERASE values follow for various compounds
Species on record: Rattus norvegicus
Test: DrugMatrix - Regimen: Daily Repeat
Format: toxicity, organism-based, Sprague-Dawley
Design: regimen Daily Repeat, gender Male, age 6-8 weeks
Conditions: in vivo, po, 0 mg/kg, 72 h, tissue Plasma, route oral GAVAGE, dose level Control, time 3 day, vehicle .5 % CMC

{"compound": "C#C[C@]1(O)CC[C@H]2[C@@H]3CCc4cc(OC)ccc4[C@H]3CC[C@@]21C", "unit.symbol": "u/L", "ASPARTATE AMINOTRANSFERASE": 82.17}
{"compound": "CC[C@@H](CO)NCCN[C@@H](CC)CO", "unit.symbol": "u/L", "ASPARTATE AMINOTRANSFERASE": 67.17}
{"compound": "OC(CCN1CCCCC1)(c1ccccc1)C1CCCCC1 (stereo unspecified)", "unit.symbol": "u/L", "ASPARTATE AMINOTRANSFERASE": 89.5}
{"compound": "Clc1ccc2c(c1)C(N1CCNCC1)=Nc1ccccc1O2", "unit.symbol": "u/L", "ASPARTATE AMINOTRANSFERASE": 86.5}
{"compound": "CC(C)[C@H]1CC[C@H](C(=O)N[C@H](Cc2ccccc2)C(=O)O)CC1 [NATEGLINIDE]", "unit.symbol": "u/L", "ASPARTATE AMINOTRANSFERASE": 95.17}
{"compound": "CN1CCC(=C2c3ccccc3C=Cc3ccccc32)CC1", "unit.symbol": "u/L", "ASPARTATE AMINOTRANSFERASE": 66.17}
{"compound": "C[C@]1(Cn2ccnn2)[C@H](C(=O)O)N2C(=O)C[C@H]2S1(=O)=O", "unit.symbol": "u/L", "ASPARTATE AMINOTRANSFERASE": 81.17}
{"compound": "N=C(N)NC(=O)c1nc(Cl)c(N)nc1N [AMILORIDE]", "unit.symbol": "u/L", "ASPARTATE AMINOTRANSFERASE": 67.17}
{"compound": "CN1C(=O)COc2c(C(=O)NC3CN4CCC3CC4)cc(Cl)cc21 (stereo unspecified)", "unit.symbol": "u/L", "ASPARTATE AMINOTRANSFERASE": 93.17}
{"compound": "CO[C@H]1/C=C/O[C@@]2(C)Oc3c(C)c(O)c4c(c3C2=O)C2=NC3(CCN(CC(C)C)CC3)NC2=C(NC(=O)/C(C)=C\\C=C\\[C@H](C)[C@H](O)[C@@H](C)[C@@H](O)[C@@H](C)[C@H](OC(C)=O)[C@@H]1C)C4=O", "unit.symbol": "u/L", "ASPARTATE AMINOTRANSFERASE": 82.17}
{"compound": "Cc1onc(-c2ccccc2)c1-c1ccc(S(N)(=O)=O)cc1", "unit.symbol": "u/L", "ASPARTATE AMINOTRANSFERASE": 68}
{"compound": "C[C@](O)(CS(=O)(=O)c1ccc(F)cc1)C(=O)Nc1ccc(C#N)c(C(F)(F)F)c1 [(R)-BICALUTAMIDE]", "unit.symbol": "u/L", "ASPARTATE AMINOTRANSFERASE": 108.17}
{"compound": "CC(=O)CC(c1ccccc1)c1c(O)c2ccccc2oc1=O (stereo unspecified)", "unit.symbol": "u/L", "ASPARTATE AMINOTRANSFERASE": 84.83}
{"compound": "CNC(=C[N+](=O)[O-])NCCSCc1ccc(CN(C)C)o1", "unit.symbol": "u/L", "ASPARTATE AMINOTRANSFERASE": 82.17}
{"compound": "O=C1CCC(N2C(=O)c3ccccc3C2=O)C(=O)N1 (stereo unspecified) [THALIDOMIDE]", "unit.symbol": "u/L", "ASPARTATE AMINOTRANSFERASE": 62.83}
{"compound": "O=[N+]([O-])c1ccccc1", "unit.symbol": "u/L", "ASPARTATE AMINOTRANSFERASE": 72.5}
